# measured on: T1, EsCas13d, nuclease-dead (Eubacterium siraeum, UniProt B0MS50, R295A;H300A;R849A;H854A)
# T1 sequence: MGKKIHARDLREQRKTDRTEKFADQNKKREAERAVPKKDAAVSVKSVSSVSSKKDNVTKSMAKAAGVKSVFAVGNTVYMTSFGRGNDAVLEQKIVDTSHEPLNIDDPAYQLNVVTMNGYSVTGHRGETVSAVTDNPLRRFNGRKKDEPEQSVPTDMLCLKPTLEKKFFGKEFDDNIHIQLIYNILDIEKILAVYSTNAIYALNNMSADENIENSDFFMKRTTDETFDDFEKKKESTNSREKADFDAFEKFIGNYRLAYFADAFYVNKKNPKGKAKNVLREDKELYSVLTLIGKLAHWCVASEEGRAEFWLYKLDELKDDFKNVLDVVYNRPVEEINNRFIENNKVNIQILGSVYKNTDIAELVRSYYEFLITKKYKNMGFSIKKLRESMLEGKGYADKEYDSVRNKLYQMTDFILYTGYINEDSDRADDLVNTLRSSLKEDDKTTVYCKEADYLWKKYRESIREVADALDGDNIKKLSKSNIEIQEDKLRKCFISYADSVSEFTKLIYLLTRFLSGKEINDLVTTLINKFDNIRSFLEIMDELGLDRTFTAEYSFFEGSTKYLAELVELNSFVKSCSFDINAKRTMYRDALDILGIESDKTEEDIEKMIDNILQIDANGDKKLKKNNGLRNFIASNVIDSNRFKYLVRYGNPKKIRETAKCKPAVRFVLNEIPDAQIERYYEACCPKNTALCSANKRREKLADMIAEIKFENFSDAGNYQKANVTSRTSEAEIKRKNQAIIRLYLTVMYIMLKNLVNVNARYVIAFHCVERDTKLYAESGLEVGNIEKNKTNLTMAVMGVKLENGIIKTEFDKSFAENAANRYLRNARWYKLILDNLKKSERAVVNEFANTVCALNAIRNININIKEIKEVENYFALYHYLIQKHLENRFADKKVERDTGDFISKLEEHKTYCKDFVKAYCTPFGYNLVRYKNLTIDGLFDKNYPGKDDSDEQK
# method notes: crRNA (strand 1, pre-loaded); Mg2+; 40 mM Tris-HCl pH 7.5, 150 mM NaCl, 6 mM MgCl2, 1 mM DTT, 0.1% Tween-20, 0.2 mg/ml BSA; 25 C; 10 min per concentration, then washed
# run parameters: tags: His6-TwinStrep-SUMO cleaved; N-terminal SNAP kept (SNAP-Surface 488); label: 3' end held by stalled T7 RNA polymerase
So I've got a bunch of binders here, and I need their Kd values.
Answers are plain numbers, in nM.

| binder | endpoint value |
| --- | --- |
| target 1 insA 3' of 22,insG 3' of 3 (mixed) RNA 1: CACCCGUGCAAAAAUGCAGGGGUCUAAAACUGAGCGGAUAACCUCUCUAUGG RNA 2: GGGAAUGGAUCCACAUCUACGAAUUCGUACACAUAGAGAGGUUAUCCGCUGCACCGAGAUCGGAAGAGCACACGU | 10.8 |

Prompt: Which value of Kd has been reported for target 2 MT 5'PFS GAU 3'PFS UAC (mixed) RNA 1: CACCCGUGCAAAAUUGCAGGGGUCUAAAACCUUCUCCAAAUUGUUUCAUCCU RNA 2: GGGAAUGGAUCCACAUCUACGAAUUCGAUAGGAUGAAACAAUUUGGAGAAGUACAGAUCGGAAGAGCACACGU in the records?
Completion: 16
